# Tested on: MS2 coat protein
# experimental.details: apparent KD of MS2 coat protein; designed switch direction (-1 OFF switch, 1 ON switch): -1; higher = weaker reporter binding
# assay.setup: input ligand: FMN 200 uM
measured.quantity: apparent KD of MS2 coat protein (nM)
Write it as a number; the unit nM goes unstated.

Would you kindly share the measured apparent KD of MS2 coat protein for AAAACGUGAGGAUAUCCAAUAUAUGACAUGAGGAUCACCCAUGUUUCCACUCGUACCUCCGGAGAAGGCACAAUUA [Ex5 #77] (Eterna round: R97, puzzle: Exclusion 5) ?
46.4

What would you report for CGUCGACAUGUAGGAUAUCUGCACGUUUAGUGCAGAGAAGGACAUGAGGAUCACCCAUGUAGAUCACGACGAAUUAAUUUAAUU [ENG1/6-C2] (Eterna round: R96, puzzle: Exclusion NG 1) ?
24

Can you handle AGUUGGCGAGGAUAUACAUGAGGAUCACCCAUGUGAGAGGUACUAGUGAGGUCGAUUAGUAGAAGGCGCUGACA [Mat X3R4 m10] (Eterna round: R97, puzzle: Exclusion 3) next?
2100

* * *

Field: apparent KD of MS2 coat protein. Provide a value for each of the sequences that follow.
# Tested on: MS2 coat protein
# experimental.details: apparent KD of MS2 coat protein; designed switch direction (-1 OFF switch, 1 ON switch): -1; higher = weaker reporter binding
# assay.setup: input ligand: microRNA oligo, concentration not stated

Tell me reported apparent KD of MS2 coat protein for UACAUGAGGAUCACCCAUGUUUUGUCGUGUAUGGUAUUUAUCUAGGAUAUCACGUUAUUUAUUUAUGAGAAGGAGAAUAUUAAU [JMF's solution 26] (Eterna round: R96, puzzle: Exclusion NG 3) , tested with MS2 coat protein.
17.1 nM

Similarly, CAUAGUUACUCAGGAUAUCAUACAUGAGGAUCACCCAUGUAAUAAAUGAGAAUUUCGAAUGUAUAUGAGAAGGGAGAAAUCUAC [Ostracism 59 - Jieux - Exclusion NG 2] (Eterna round: R96, puzzle: Exclusion NG 2) ?
13.4 nM

Now consider GUCAGCUCGUCAGGAUAUACAUGAGGAUCACCCAUGUGGUCAUUAGCAGCUUCGGCUGCAUUAAUGUAGAAGGGACGAGCUGAC [ENG2/8-B1] (Eterna round: R96, puzzle: Exclusion NG 2) and answer again.
357 nM

Follow-up item: UUAUUAAUUAAGACUGCAAGAUCACAUGAGGAUCACCCAUGUCAGGAUAUCAGCUCGAUUAGAGCUGAGAAGGGACAAGCAGUC [ExNG3/15-A1] (Eterna round: R96, puzzle: Exclusion NG 3)
112 nM

* * *

# Tested on: MS2 coat protein
# experimental.details: apparent KD of MS2 coat protein, switch ON state; designed switch direction (-1 OFF switch, 1 ON switch): -1; higher = weaker reporter binding
# assay.setup: FMN input: 0 or 200 uM; Eterna round: R93 (includes R88 designs)
Would you mind telling me the reported apparent KD of MS2 coat protein of each entry?
# value in nM; strip the unit string

# input sequence: AAAAGGGCAGGAUAUACAUGAGGAUCACCCAUGUGAAAAAAAAAAAAAAAAAAAAAGUGUAGAAGGGUCAAAAA [Exclusion 3 - Omei 3] ; wanted: its apparent KD of MS2 coat protein
55.3

Also check AUAGUACAUGAGGAUCACCCAUGUCAGGAUAUUGGAUAUGAAAAAAAAAAAAAGUUAACGAGAAGGGACUAUAA [EX1 Malc#14]
28.5

Another sequence: AGUUGGCGAGGAUAUACAUGAGGAUCACCCAUGUAAAAAAAAAAAAAAAAAACUUCAUGUAGAAGGCGCUGACA [Starry Exclusion 3.4 (biggestlegoheroicafanever round 1 mod)]
85.5

Next: AUCGAUCGAGGAUAUACAUGAGGAUCACCCAUGUAAAGCAGAAGAAAGGCCUCAGGAUGUAGAAGGCGACGCAA [JR_Exc003_Sub404]
17.1

Entry AACAGUACAGGAUAUACAUGAGGAUCACCCAUGUGAGAAUUAAAAGGCGUACCUAAAAGUAGAAGGGUACUGGA [JL Maslow Revisted mod 18] please
28.3

Also need UCUUGACAUGAGGAUCACCCAUGUCAGGAUAUAGUAGGACAAAUAAAUAAAAGUAAUACUAGAAGGGAUAUGGG [Amethyst 52] , thanks.
29.8

Here is the next sequence: AAAAAAUAAGGAUAUACAUUUCGGGAAAUUUUUACAAAAAAACAUGAGGAUCACCCAUGUAGAAGGUAUAAAAA [Exclusion 2]
18.6

Where do these numbers come from? They come from the supplement of paper PMC9170038.
